Cited source: PubChem BioAssay (NCI)

TGI by entry:
- Test system: NCI-H460 lung
- PROTOCOL: NCI tumour cell line growth inhibition, 48 h
QUANTITY: TGI

[
  {
    "COMPOUND": "COC(=O)[C@H](C)N1C(=O)N[C@@H](C(C)C)C1=O",
    "RESULT": "> 100 µM"
  },
  {
    "COMPOUND": "CS(=O)(=O)OCCN1CCC2(CC1)SSC1(CCN(CCOS(C)(=O)=O)CC1)S2",
    "RESULT": "> 100 µM"
  },
  {
    "COMPOUND": "Cn1nc(C(F)(F)F)c(-c2ccc(Cl)c(C(F)(F)F)c2)c1-c1ccc(OCc2ccc(Cl)cc2)cc1O",
    "RESULT": "5.64 µM"
  },
  {
    "COMPOUND": "O=C(N/N=C(/c1nc2ccc(Cl)cc2[nH]c1=O)C(O)c1ccc(Cl)cc1Cl)c1ccncc1 (centres undefined)",
    "RESULT": "> 100 µM"
  },
  {
    "COMPOUND": "COc1ccc(/C=C/c2c(C(=O)/C=C/c3ccc(Cl)cc3)c(C)nc3ccccc23)cc1",
    "RESULT": "5.61 µM"
  },
  {
    "COMPOUND": "CC1(C)COC(c2cccc(C3=NC(C)(C)CO3)c2Br)=N1",
    "RESULT": "> 100 µM"
  },
  {
    "COMPOUND": "CC(CCC(=O)O)[C@H]1CCC2[C@H]3C(CC[C@@]21C)[C@@]1(C)CCC(O)C[C@H]1C[C@@H]3O (some centres undefined)",
    "RESULT": "> 100 µM"
  },
  {
    "COMPOUND": "N#CC1=C(N)C(C#N)(C#N)C(c2ccc(F)cc2)C=C1C1CC1 (centres undefined)",
    "RESULT": "17.6 µM"
  },
  {
    "COMPOUND": "COc1ccc2cccc(C(=O)c3ccc(C)c4c3CCC4)c2c1",
    "RESULT": "> 100 µM"
  }
]

----------
- Tested on: RXF 393 renal
- PROTOCOL: NCI tumour cell line growth inhibition, 48 h
Classify by measured TGI: criterion met if it is equal to or exceeds 4 µM, criterion not met if it is smaller.

[
  {
    "COMPOUND": "CCOC(=O)c1cc2c(OC(C)=O)ccc(OC(C)=O)c2s1",
    "CLASS_ASSIGNMENT": "criterion not met"
  },
  {
    "COMPOUND": "Cc1cc(C)cc(-n2c3nc(=O)n(C)c(=O)c-3nc3ccccc32)c1",
    "CLASS_ASSIGNMENT": "criterion met"
  },
  {
    "COMPOUND": "Cc1c2c3cc(O)ccc3nc-2n(C)c2ccccc12",
    "CLASS_ASSIGNMENT": "criterion not met"
  },
  {
    "COMPOUND": "N/C(=N\\NS(=O)(=O)c1ccccc1)Oc1ccc(Cl)cc1",
    "CLASS_ASSIGNMENT": "criterion met"
  },
  {
    "COMPOUND": "COc1ccc(-c2ccc3c(NC(=O)C4CC4)n[nH]c3n2)cc1",
    "CLASS_ASSIGNMENT": "criterion met"
  },
  {
    "COMPOUND": "COc1ccc(-c2nn(-c3cccc(Cl)c3)cc2C=C(C#N)C#N)cc1",
    "CLASS_ASSIGNMENT": "criterion met"
  },
  {
    "COMPOUND": "S=c1nc[nH]c2c1ncn2Cc1ccco1",
    "CLASS_ASSIGNMENT": "criterion met"
  },
  {
    "COMPOUND": "CN(C)CCOC(=O)COc1ccc(Cl)cc1",
    "CLASS_ASSIGNMENT": "criterion met"
  },
  {
    "COMPOUND": "CN1/C(=C\\C(I)C(I)C2=[N+](C)c3ccccc3C2(C)C)C(C)(C)c2ccccc21 (stereo unspecified)",
    "CLASS_ASSIGNMENT": "criterion not met"
  },
  {
    "COMPOUND": "C=CN1C(=O)OC(c2ccccc2)C1c1ccccc1 (stereo unspecified)",
    "CLASS_ASSIGNMENT": "criterion met"
  },
  {
    "COMPOUND": "CCC1(CC)C(=O)CC[C@@]2(C)C1=CC[C@H]1[C@@H]3CC[C@H](O)[C@@]3(C)CC[C@@H]12",
    "CLASS_ASSIGNMENT": "criterion met"
  }
]

----------
- System: HOP-62 NSCLC
- PROTOCOL: NCI tumour cell line growth inhibition, 48 h
TGI by entry:

[
  {
    "COMPOUND": "CC(=O)/C=C/C=C(\\C)CC/C=C(\\C)CC(C)C",
    "TARGET_SYSTEM": "HOP-62 NSCLC",
    "TGI": "> 100 µM"
  },
  {
    "COMPOUND": "CC(CCC(=O)O)[C@H]1CCC2[C@H]3C(CC[C@@]21C)[C@@]1(C)CCC(O)C[C@H]1C[C@@H]3O (stereo partly drawn)",
    "TARGET_SYSTEM": "HOP-62 NSCLC",
    "TGI": "> 100 µM"
  },
  {
    "COMPOUND": "C=CN1C(=O)OC(c2ccccc2)C1c1ccccc1 (stereo not drawn)",
    "TARGET_SYSTEM": "HOP-62 NSCLC",
    "TGI": "> 100 µM"
  }
]

----------
TGI by entry:
- System: 786-0 renal
- PROTOCOL: NCI tumour cell line growth inhibition, 48 h

[
  {
    "COMPOUND": "COc1ccc(/C=C/c2cc(O)cc(OC)c2)cc1",
    "TGI": "> 100 µM"
  },
  {
    "COMPOUND": "Nc1ccc(-c2nc3ccc4[nH]ncc4c3c3c2CCCC3)cc1F",
    "TGI": "10.3 µM"
  },
  {
    "COMPOUND": "CCN(CC)CCN1C(=O)c2c(c(C)c3c(oc4cc(O)ccc43)c2C)C1=O",
    "TGI": "3.2 µM"
  },
  {
    "COMPOUND": "O=C(N/N=C(/c1nc2ccc(Cl)cc2[nH]c1=O)C(O)c1ccc(Cl)cc1Cl)c1ccncc1 (configuration not stated)",
    "TGI": "> 100 µM"
  },
  {
    "COMPOUND": "CC(=O)NS(=O)(=O)c1ccc(NC(=O)COC(=O)c2cccc3c(=O)c4ccccc4[nH]c23)cc1",
    "TGI": "> 100 µM"
  },
  {
    "COMPOUND": "O=C1NC(=S)N/C1=C/c1ccccc1O",
    "TGI": "> 100 µM"
  },
  {
    "COMPOUND": "COC(=O)c1ccc(-c2nc(C#N)c(N)o2)cc1",
    "TGI": "> 100 µM"
  }
]

----------
- System: SW-620 colon
- PROTOCOL: NCI tumour cell line growth inhibition, 48 h
QUANTITY: TGI

[
  {
    "MOLECULE": "CC1(C)O[C@@H](CO)[C@H]([C@@]23OC[C@H]4OC(C)(C)OC4[C@@H]2OC(C)(C)O3)O1 (stereo partly specified)",
    "QUANTITY": "TGI",
    "RESULT": "> 100 µM"
  },
  {
    "MOLECULE": "Cc1cc(C)c(S(=O)(=O)N(CCCCN)OCCCN)c(C)c1",
    "QUANTITY": "TGI",
    "RESULT": "32.6 µM"
  },
  {
    "MOLECULE": "Cn1c(=O)c2c(-c3ccccc3)onc2n(C)c1=O",
    "QUANTITY": "TGI",
    "RESULT": "> 100 µM"
  },
  {
    "MOLECULE": "COc1ccc(C(O)c2ccc3c(c2)OCO3)cc1 (stereo unspecified)",
    "QUANTITY": "TGI",
    "RESULT": "> 100 µM"
  },
  {
    "MOLECULE": "C=C1CCC2C3(C)COC(c4ccc(NC(C)=O)cc4)OC3CCC2(C)C1C/C=C1/C(=O)OCC1O (stereo unspecified)",
    "QUANTITY": "TGI",
    "RESULT": "> 100 µM"
  },
  {
    "MOLECULE": "CC(=O)NC1C(CO)O[C@@H]2OC(C)(C)O[C@H]12 (stereo partly specified)",
    "QUANTITY": "TGI",
    "RESULT": "> 100 µM"
  }
]

----------
- Tested on: COLO 205 colon
- PROTOCOL: NCI tumour cell line growth inhibition, 48 h

[
  {
    "COMPOUND": "C/C(O)=C(\\C=N\\C(N)=S)C(=O)Nc1ccccc1C",
    "TGI": "> 100 µM"
  },
  {
    "COMPOUND": "O=P(Oc1ccc(Cl)cc1)(Oc1ccc(Cl)cc1)N1CC1",
    "TGI": "> 10 µM"
  },
  {
    "COMPOUND": "O=S1(=O)NNC(=NCc2ccc(Cl)cc2)c2ccccc21",
    "TGI": "> 100 µM"
  },
  {
    "COMPOUND": "COc1ccc(-c2ccc3c(NC(=O)C4CC4)n[nH]c3n2)cc1",
    "TGI": "> 25 µM"
  },
  {
    "COMPOUND": "Cc1nnc2cc(C(=O)O)c3ccccc3n2c1=O",
    "TGI": "> 10 µM"
  },
  {
    "COMPOUND": "CCCCc1c2c(nc3c1CCc1cc4c(nc1-3)-c1nc3c(c(CCCC)c1CC4)CCC/C3=C\\c1ccccc1)/C(=C/c1ccccc1)CCC2",
    "TGI": "> 100 µM"
  },
  {
    "COMPOUND": "COc1ccc(/C=C2\\Cc3ccccc3C2=O)cc1OC",
    "TGI": "> 100 µM"
  },
  {
    "COMPOUND": "Nc1ccc2c(c1)C(=O)c1ccccc1-2",
    "TGI": "> 100 µM"
  },
  {
    "COMPOUND": "CC(NC(=O)/C(=C/c1ccccc1O)NC(=O)c1ccccc1)C(=O)O (configuration not stated)",
    "TGI": "> 100 µM"
  },
  {
    "COMPOUND": "Cc1ccc(S(=O)(=O)n2cncc2CO)cc1",
    "TGI": "> 100 µM"
  },
  {
    "COMPOUND": "Cc1cc2ccccc2n1CC(=O)NCC(C)C",
    "TGI": "> 100 µM"
  },
  {
    "COMPOUND": "C(=N\\Nc1nnc2c(n1)[nH]c1ccccc12)/c1cccnc1",
    "TGI": "> 100 µM"
  }
]
